Assay: Toxicity liver stage against HepG2, at 10uM
Type: cell-based
Set-up: test concentration 10 uM, cell line HepG2-A16-CD81EGFP
Details: human, HepG2-A16-CD81EGFP cells; read-out: INHIBITION
Assign cytotoxicity at 10 µM to each entry below.
Answers are plain numbers, in %.

Use these answered entries as a reference point.
Cc1cnccc1NCCn1ccnc1C1CCCCC1 :: -4.2
COc1ccc(C(C)N2CCC(CNC(C)=O)CC2)cc1Cl (centres undefined) :: -51.5
N#Cc1cc(S(N)(=O)=O)ccc1N1CCc2c(Cl)cccc2C1 :: 14.7
Cc1ccc(C(=O)O)cc1-c1cccc(C(C)N(C)C)c1 (centres undefined) :: -3.17
Cc1noc(CCNC(=O)c2ccc(Br)c(S(=O)(=O)N(C)C)c2)n1 :: 6.45

Hi, could you look up cytotoxicity at 10 µM for each item in my list?
1. Cc1nc(CN2CCC23CCN(Cc2ccco2)CC3)cs1
2. CCCC(=O)N(CCN1CCOCC1)c1nc2c(OC)ccc(C)c2s1
3. COc1ncccc1CN1Cc2nccn2CC(Cn2cccn2)C1 (centres undefined)
4. Cc1cc(=O)n(C)cc1NC(=O)Cc1cc(F)ccc1F
5. Cc1cc(CN2C[C@@H]3COC[C@]3(COCc3csc(C)n3)C2)no1
6. O=C(NCCNc1cc(-n2cccc2)ncn1)c1cccs1

# output
-114
-5.02
-106
-11.4
1.17
-2.56
